Test system: Ps. aeruginosa (64 strains)
Assay: Mean % relative activity to carbenicillin from geometric mean MIC
Type: cell-based
Details: Ps. aeruginosa, 64 strains; from geometric mean of MIC
REPORTED ENDPOINT: Mean % relative activity (carbenicillin = 100%)
Give bare numbers, in %.

Previously resolved entries follow.
CCN1CCN(C(=O)N[C@@H](C(=O)N[C@@H]2C(=O)N3[C@@H]2SC(C)(C)[C@@H]3C(=O)O)c2ccccc2)C(=O)C1=O [piperacillin, reference compound] | 637
CCN1CCN(C(=O)N[C@@H](C(=O)N[C@@H]2C(=O)N3[C@@H]2SC(C)(C)[C@@H]3C(=O)O)c2ccc(O)c(O)c2)C(=O)C1=O [BB-P 661] | 418
CCN1CCN(C(=O)NC(C(=O)N[C@@H]2C(=O)N3[C@@H]2SC(C)(C)[C@@H]3C(=O)O)c2ccc(O)c(O)c2)C(=O)C1=O (mixture of isomers) [BB-P 652] | 271

Now examine the next entry.
Requested read-out Mean % relative activity (carbenicillin = 100%), target or system Ps. aeruginosa (64 strains), entry CCN1CCN(C(=O)N[C@H](C(=O)N[C@@H]2C(=O)N3[C@@H]2SC(C)(C)[C@@H]3C(=O)O)c2ccc(O)c(O)c2)C(=O)C1=O [BB-P 660]
26
